System: PLC/PRF/5
Assay: MTT cell viability, PLC/PRF/5 (liver cancer)
Format: cell-based
Settings: Homo sapiens, 48 hour incubation, read-out: Drug concentrations for 50% cell viability (IC50)
MEASURED_ENDPOINT: IC50 (nM)

>>> test_result("CS(=O)(=O)c1cc2c(o1)C(=O)c1ccccc1C2=O")
2500
>>> test_result("C[S+]([O-])c1cc2c(o1)C(=O)c1ccccc1C2=O (centres unmarked)")
2000

###

System: DU-145
Assay: MTT cell viability, DU-145 (prostate cancer)
Format: cell-based
Conditions: Homo sapiens, 48 hour incubation, read-out: Drug concentrations for 50% cell viability (IC50)
pIC50: −log10 of the molar value.
MEASURED_ENDPOINT: pIC50

# example entries with known answers
>>> test_result("CS(=O)(=O)c1cc2c(o1)C(=O)c1ccccc1C2=O [Compound I]")
6.37
>>> test_result("C[S+]([O-])c1oc2c(c1-c1ccccc1)C(=O)c1ccccc1C2=O (stereo not shown) [Compound XVI]")
5.49

A. C[S+]([O-])c1cc2c(o1)C(=O)c1ccccc1C2=O (stereo not shown) [Compound II]
B. CS(=O)(=O)c1oc2c(c1-c1ccccc1)C(=O)c1ccccc1C2=O [Compound XV]
INPUT: Sort A and B by pIC50 descending and give the first. Kindly state the label of the option you pick.
OUTPUT: A
(A: 6.30, B: 5.30)

###

Test system: U251
Assay: MTT cell viability, U251 (glioma)
Assay type: cell-based
Settings: Homo sapiens, U-251, 48 hour incubation, read-out: Drug concentrations for 50% cell viability (IC50)
MEASURED_ENDPOINT: IC50 (µM)

>>> test_result("CS(=O)(=O)c1cc2c(o1)C(=O)c1ccccc1C2=O")
1
>>> test_result("C[S+]([O-])c1cc2c(o1)C(=O)c1ccccc1C2=O (centres unmarked)")
1
